Listed next: entries and their corresponding growth.
# System: TK-10 renal
# method-notes: NCI-60 one-dose screen, 48 h (100 = growth as untreated, 0 = no growth, -100 = all killed)
# experimental-conditions: 10 µM unless noted
About 83,000 compounds went through this panel and 20% of them were active in at least one assay; those are over-represented in the sample as a whole.
Answer with a number only, understood to be in %.

Known results for compounds:
CC(=O)[O][Hg][c]1ccccc1 :: -94.7
O=C1NC(=O)C(Cc2ccccc2)(Cc2ccccc2)C(=O)N1 :: 99.5
C[CH2][Sn]([CH2]C)([CH2]C)[NH]S(=O)(=O)c1ccc(C)cc1 :: 109
COC1=CC(=O)OC(CCc2ccc3c(c2)OCO3)C1 (centres undefined) :: 102
O=c1cc[nH]c(=O)o1 :: 84.1
CCCCn1cc(C(=O)/C(C#N)=C/c2cc3ccccc3nc2Cl)c2cc(OC)ccc21 :: 101
O=[N+]([O-])c1ccc2cnn(CSP(=S)(c3ccccc3)c3ccccc3)c2c1 :: 127
Nc1ccc([N+](=O)[O-])c2c1Oc1ccccc1O2 :: 94.4

### Prompt // lookup growth for `CC[C@]12C=CCN3CC[C@@]4(c5ccc(OC)cc5N(C)[C@H]4[C@@](O)(C(=O)OC)[C@@H]1OC(=O)CCCN1CCN(CCCC(=O)O[C@@H]4[C@]5(CC)C=CCN6CC[C@@]7(c8ccc(OC)cc8N(C)[C@H]7[C@@]4(O)C(=O)OC)[C@@H]65)CC1)[C@@H]32`
### Response -87.9
